Listing of entries alongside the reported inhibition.
target: MAP kinase-interacting serine/threonine-protein kinase 2 (Homo sapiens) (UniProt Q9HBH9); assay: Inhibition of MNK2 (unknown origin) at 5 uM preincubated for 10 mins followed by substrate addition and measured after 60 mins by ADP-glo kinase assay relative to control; settings: time 70.0 min
Sequence (Q9HBH9 whole entry, looked up): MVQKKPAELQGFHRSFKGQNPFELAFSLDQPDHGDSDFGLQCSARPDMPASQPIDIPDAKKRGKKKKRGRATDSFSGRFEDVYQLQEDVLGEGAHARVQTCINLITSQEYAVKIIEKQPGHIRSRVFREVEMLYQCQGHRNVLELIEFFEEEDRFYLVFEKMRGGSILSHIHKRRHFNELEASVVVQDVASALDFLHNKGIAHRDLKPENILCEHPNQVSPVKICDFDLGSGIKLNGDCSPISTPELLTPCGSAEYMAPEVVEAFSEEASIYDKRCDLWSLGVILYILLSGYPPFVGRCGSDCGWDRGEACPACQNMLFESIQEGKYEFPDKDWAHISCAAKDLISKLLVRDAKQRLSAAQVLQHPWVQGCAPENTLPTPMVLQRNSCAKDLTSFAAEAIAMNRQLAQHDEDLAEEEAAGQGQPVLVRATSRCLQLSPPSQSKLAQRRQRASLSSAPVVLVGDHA

Chemical structure | inhibition
C=CC(=O)N1CCC(c2cc(-c3ccnc4[nH]ccc34)[nH]n2)CC1 | 61%
CCS(=O)(=O)N1CCC(c2cc(-c3ccnc4[nH]ccc34)[nH]n2)CC1 | 22.4%
COc1cc(C(=O)N2CCC(c3cc(-c4ccnc5[nH]ccc45)[nH]n3)CC2)cc(OC)c1OC | 74.4%
Fc1cccc(CN2CCC(c3cc(-c4ccnc5[nH]ccc45)[nH]n3)CC2)c1 | 76.8%
O=C(c1ccc(F)c(F)c1)N1CCC(c2cc(-c3ccnc4[nH]ccc34)[nH]n2)CC1 | 53.3%
COc1cccc(C(=O)N2CCC(c3cc(-c4ccnc5[nH]ccc45)[nH]n3)CC2)c1 | 34.3%
O=C(CC1CC1)N1CCC(c2cc(-c3ccnc4[nH]ccc34)[nH]n2)CC1 | 46.5%
O=C(c1ccc(C(F)(F)F)cc1)N1CCC(c2cc(-c3ccnc4[nH]ccc34)[nH]n2)CC1 | 57.4%

----------
target: MAP kinase-interacting serine/threonine-protein kinase 1 (Homo sapiens, UniProt Q9BUB5); assay: Inhibition of MNK1 (unknown origin) at 5 uM preincubated for 10 mins followed by substrate addition and measured after 60 mins by ADP-glo kinase assay relative to control; settings: time 70.0 min
Sequence (Q9BUB5 whole entry, looked up): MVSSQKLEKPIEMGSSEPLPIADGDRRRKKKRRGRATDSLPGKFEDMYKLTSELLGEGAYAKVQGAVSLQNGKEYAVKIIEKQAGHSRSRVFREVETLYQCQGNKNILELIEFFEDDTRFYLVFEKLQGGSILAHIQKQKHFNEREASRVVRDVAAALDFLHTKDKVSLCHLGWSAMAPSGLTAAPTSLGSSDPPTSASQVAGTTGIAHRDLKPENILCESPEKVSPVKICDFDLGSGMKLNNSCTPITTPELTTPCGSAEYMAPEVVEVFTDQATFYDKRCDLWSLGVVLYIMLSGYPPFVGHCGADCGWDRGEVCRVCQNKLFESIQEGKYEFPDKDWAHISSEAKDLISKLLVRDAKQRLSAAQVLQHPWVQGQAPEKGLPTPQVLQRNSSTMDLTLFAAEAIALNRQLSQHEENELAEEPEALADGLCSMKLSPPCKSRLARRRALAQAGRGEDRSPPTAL

Chemical structure | Readout unit | inhibition
O=C(c1ccc(C(F)(F)F)cc1)N1CCC(c2cc(-c3ccnc4[nH]ccc34)[nH]n2)CC1 | % | 81.3
CC(=O)c1ccc(C(=O)N2CCC(c3cc(-c4ccnc5[nH]ccc45)[nH]n3)CC2)cc1 | % | 71.7
CC(=O)N1CCC(c2cc(-c3ccnc4[nH]ccc34)[nH]n2)CC1 | % | 41.8
O=C(c1cccc(F)c1)N1CCC(c2cc(-c3ccnc4[nH]ccc34)[nH]n2)CC1 | % | 66.6
Cc1ccc(CN2CCC(c3cc(-c4ccnc5[nH]ccc45)[nH]n3)CC2)cc1 | % | 76
N#CCN1CCC(c2cc(-c3ccnc4[nH]ccc34)[nH]n2)CC1 | % | 71.4
Fc1ccc(CN2CCC(c3cc(-c4ccnc5[nH]ccc45)[nH]n3)CC2)cc1F | % | 71.1
CC(=O)c1cccc(CN2CCC(c3cc(-c4ccnc5[nH]ccc45)[nH]n3)CC2)c1 | % | 69.2
O=S(=O)(F)N1CCC(c2cc(-c3ccnc4[nH]ccc34)[nH]n2)CC1 | % | 68.3
O=C(C1CCC1)N1CCC(c2cc(-c3ccnc4[nH]ccc34)[nH]n2)CC1 | % | 39.9
